Tested on: RXF 393 renal
TEST_DETAILS: NCI-60 one-dose screen, 48 h (100 = growth as untreated, 0 = no growth, -100 = all killed)
PROTOCOL_CONDITIONS: 10 µM unless noted
About 83,000 compounds went through this panel and 20% of them were active in at least one assay; those are over-represented in the sample as a whole.
Response key: Criterion met means growth >= 50%; Criterion not met means growth < 50%.

INSERT INTO results (molecule, category_label) VALUES
  ('O=c1cc(Cc2ccc([N+](=O)[O-])cc2)[nH]c(=O)[nH]1', 'Criterion met'),
  ('COc1cccc(CC(C)=C(c2ccc(OCCN(C)C)cc2)c2ccc(OCCN(C)C)cc2)c1', 'Criterion not met'),
  ('CC1=NC2=CC=CC3=NC(C(Cl)(Cl)Cl)=NC(=N1)N23', 'Criterion not met'),
  ('CCC(=O)OC1=CN2C(=NC(c3ccc(N)cc3)=CC2c2cc(OC)c(OC)c(OC)c2)S1 (centres undefined)', 'Criterion not met'),
  ('Cc1ccc(Cc2c(C=O)nc(N)[nH]c2=O)c2ccccc12', 'Criterion met'),
  ('COc1cc(Nc2nc(N[C@H]3CCCC[C@@H]3N)nc3cc[nH]c(=O)c23)cc(OC)c1', 'Criterion not met'),
  ('O=C1CCCCC1(c1ccccc1)c1ccccc1', 'Criterion met'),
  ('O=S(=O)(NCCCNc1nccc(-n2ccc3cccnc32)n1)c1cccc(C(F)(F)F)c1', 'Criterion met'),
  ('C=C1c2nc3ccccc3n2C=C(c2ccc(Cl)cc2)N1Cc1ccccc1', 'Criterion met'),
  ('CC(C)(C)c1[nH]nc2c1C(c1cc3ccccc3[nH]c1=O)Nc1cc(C(=O)Nc3ccc(Cl)cc3)ccc1N2 (centres undefined)', 'Criterion not met'),
  ('CSc1nc2c(c(=O)[nH]1)C(c1ccc(C)cc1)C=C(C(=O)O)N2 (centres undefined)', 'Criterion met'),
  ('CN(C)c1cccc2c(S(=O)(=O)/N=C(\N)Nc3nc4ccccc4s3)cccc12', 'Criterion met'),
  ('CCOC(=O)c1c(/N=C2\SC(=O)/C(=C\C(=O)OC)N2NC)sc2c1CCN(C(=O)OCC)C2', 'Criterion met'),
  ('COc1ccc(CN2CCc3c(Sc4ccccc4)nc(N)nc3C2=O)c(OC)c1', 'Criterion not met'),
  ('COc1ccc2c(c1)C(c1cc(OC)c3c(c1)OCO3)C1=C(COC1=O)N2 (centres undefined)', 'Criterion not met'),
  ('O=C(/C=C/c1ccccc1)c1cccc(O)c1', 'Criterion met'),
  ('C=C1C(=O)O[C@H]2[C@H]1CC/C(Cn1cc(CNC(=O)Cc3cn(C(=O)c4ccc(Cl)cc4)c4ccc(OC)cc34)nn1)=C\CC[C@@]1(C)O[C@@H]21', 'Criterion not met'),
  ('O=C(Nc1cccc(-n2cc(-c3ccncc3)c(-c3ccc(Cl)c(O)c3)n2)c1)Nc1cccc(C(F)(F)F)c1', 'Criterion not met'),
  ('COc1ccc(CNCCCN2C(=O)c3ccc4c5c(ccc(c35)C2=O)C(=O)N(CCCNCCCCNCCCN)C4=O)c(OC)c1OC', 'Criterion not met');
